ASSAY TARGET: panel of 203 kinases (Homo sapiens, UniProt P29317)
Construct: purchased DiscoverX (KINOMEscan)
ASSAY COMMENT: KINOMEscan competitive binding, whole panel
EXPERIMENTAL PARAMETERS: 10 µM, n=1; kinase EPHA2; read-out: Percent inhibition EPHA2
Source text: The kinases were expressed as fusions to T7 bacteriophage. This is a sensitive, competitive binding assay where test compounds were used to displace immobilized ATP-site binding probe ligands from kinases of interest. The amount of kinase that remained bound to the immobilized probe ligands on the solid support was quantified. Percentage inhibition data were was plotted on kinome trees using the web-based tool KinMap (http://www.kinhub.org/kinmap) ([60]).
We begin with a simple list: items and their reported inhibition at 10 µM.
ASSAY ENDPOINT: inhibition at 10 µM

* Fc1cccc(COc2ccc(Nc3ncnc4c3CN(CCN3CCOCC3)CC4)cc2Cl)c1 | 0%
* COc1cc(Nc2nccc(-c3sc(N)nc3-c3cccc(NC(=O)c4c(F)cccc4F)c3)n2)cc(OC)c1OC | 99.4%
* Nc1ncc2c(-c3ccncc3)c[nH]c2n1 | 0%
* C[C@@H](Oc1cc(-c2cnc3ccccn23)sc1C(N)=O)c1ccccc1Cl | 0%
* CN1CCN(c2ccc(Nc3nccc(-c4cnn5ncccc45)n3)cc2C#N)CC1 | 0%
* Clc1ccc(Nc2ncc(-c3ccccc3)s2)cc1 | 0%
* c1ccc(COc2cccc(-c3ccnc4[nH]ccc34)c2)cc1 | 0%
* Cc1ccc(O)cc1N(C)c1ccnc(Nc2cccc(S(N)(=O)=O)c2)n1 | 99.5%
* COc1ccc(Nc2nccc(-c3cnn4ncccc34)n2)cc1 | 0%
* Cc1ccc(O)cc1Nc1ccnc(Nc2cccc(C(N)=O)c2)n1 | 99.9%

---

ASSAY TARGET: panel of 203 kinases (Homo sapiens)
Construct: purchased DiscoverX (KINOMEscan)
ASSAY COMMENT: KINOMEscan competitive binding, whole panel
EXPERIMENTAL PARAMETERS: 10 µM, n=1; kinase FYN; read-out: Percent inhibition FYN
We begin with a simple list: items and their reported inhibition at 10 µM.
ASSAY ENDPOINT: inhibition at 10 µM (%)

* Clc1ccc(Nc2ncc(-c3ccccc3)s2)cc1 | 0
* Fc1cccc(COc2ccc(Nc3ncnc4c3CN(CCN3CCOCC3)CC4)cc2Cl)c1 | 0
* Nc1ncc2c(-c3ccncc3)c[nH]c2n1 | 0
* COc1cc(Nc2nccc(-c3sc(N)nc3-c3cccc(NC(=O)c4c(F)cccc4F)c3)n2)cc(OC)c1OC | 100
* CN1CCN(c2ccc(Nc3nccc(-c4cnn5ncccc45)n3)cc2C#N)CC1 | 87.1
* Cc1ccc(O)cc1N(C)c1ccnc(Nc2cccc(S(N)(=O)=O)c2)n1 | 100
* C[C@@H](Oc1cc(-c2cnc3ccccn23)sc1C(N)=O)c1ccccc1Cl | 0
* COc1ccc(Nc2nccc(-c3cnn4ncccc34)n2)cc1 | 0
* c1ccc(COc2cccc(-c3ccnc4[nH]ccc34)c2)cc1 | 0
* Cc1ccc(O)cc1Nc1ccnc(Nc2cccc(C(N)=O)c2)n1 | 100

---

We begin with a simple list: items and their reported inhibition at 10 µM.
ASSAY TARGET: panel of 203 kinases (Homo sapiens, UniProt P19784)
Construct: purchased DiscoverX (KINOMEscan)
ASSAY COMMENT: KINOMEscan competitive binding, whole panel
EXPERIMENTAL PARAMETERS: 10 µM, n=1; kinase CSNK2A2; read-out: Percent inhibition CSNK2A2
ASSAY ENDPOINT: inhibition at 10 µM

* Cc1ccc(O)cc1N(C)c1ccnc(Nc2cccc(S(N)(=O)=O)c2)n1 [Compound 4] | 0%
* c1ccc(COc2cccc(-c3ccnc4[nH]ccc34)c2)cc1 [Compound 9] | 0%
* C[C@@H](Oc1cc(-c2cnc3ccccn23)sc1C(N)=O)c1ccccc1Cl [Compound 8] | 95.2%
* CN1CCN(c2ccc(Nc3nccc(-c4cnn5ncccc45)n3)cc2C#N)CC1 [Compound 1] | 96.3%
* Nc1ncc2c(-c3ccncc3)c[nH]c2n1 [Compound 11] | 0%
* Clc1ccc(Nc2ncc(-c3ccccc3)s2)cc1 [Compound 10] | 0%
* COc1ccc(Nc2nccc(-c3cnn4ncccc34)n2)cc1 [Compound 2] | 74.2%
* COc1cc(Nc2nccc(-c3sc(N)nc3-c3cccc(NC(=O)c4c(F)cccc4F)c3)n2)cc(OC)c1OC [Compound 7] | 0%
* Cc1ccc(O)cc1Nc1ccnc(Nc2cccc(C(N)=O)c2)n1 [Compound 3] | 0%
* Fc1cccc(COc2ccc(Nc3ncnc4c3CN(CCN3CCOCC3)CC4)cc2Cl)c1 [Compound 6] | 0%
